Reference source for all entries: patent US7422884B2

- Tested on: His6-tagged Paracoccus zeaxanthinifaciens mevalonate kinase
- Experiment notes: Feedback inhibition of mevalonate kinase by downstream products of the pathway
- Assay type: biochemical
- Details: 138 μM of the inhibitor; wild-type His6-tagged enzyme
Entries and their Inhibition of mevalonate kinase activity
Answer in %, number only, no unit symbol.

| Compound | Output unit | Numeric readout |
| --- | --- | --- |
| CC(C)=CCC/C(C)=C/CC/C(C)=C/CC/C(C)=C/COP(=O)(O)OP(=O)(O)O [GGPP, geranylgeranyl diphosphate] | % | 98 |

Q: Please give measured Inhibition of mevalonate kinase activity of the following entry: CC(C)=CCC/C(C)=C/COP(=O)(O)OP(=O)(O)O [GPP, geranyl diphosphate]
A: 18.6

Q: Given CC(C)=CCOP(=O)(O)OP(=O)(O)O [DMAPP, 3,3-dimethylallyl diphosphate] , respond with its Inhibition of mevalonate kinase activity.
A: 14.7

Q: Name the recorded Inhibition of mevalonate kinase activity of the item C=C(C)CCOP(=O)(O)OP(=O)(O)O [IPP, isopentenyl diphosphate] in your answer.
A: 16.3
